Molecular target: Agonist Androgen Response Element (ARE), AR (gene 367) (UniProt P10275)
Sequence (P10275 whole entry, looked up): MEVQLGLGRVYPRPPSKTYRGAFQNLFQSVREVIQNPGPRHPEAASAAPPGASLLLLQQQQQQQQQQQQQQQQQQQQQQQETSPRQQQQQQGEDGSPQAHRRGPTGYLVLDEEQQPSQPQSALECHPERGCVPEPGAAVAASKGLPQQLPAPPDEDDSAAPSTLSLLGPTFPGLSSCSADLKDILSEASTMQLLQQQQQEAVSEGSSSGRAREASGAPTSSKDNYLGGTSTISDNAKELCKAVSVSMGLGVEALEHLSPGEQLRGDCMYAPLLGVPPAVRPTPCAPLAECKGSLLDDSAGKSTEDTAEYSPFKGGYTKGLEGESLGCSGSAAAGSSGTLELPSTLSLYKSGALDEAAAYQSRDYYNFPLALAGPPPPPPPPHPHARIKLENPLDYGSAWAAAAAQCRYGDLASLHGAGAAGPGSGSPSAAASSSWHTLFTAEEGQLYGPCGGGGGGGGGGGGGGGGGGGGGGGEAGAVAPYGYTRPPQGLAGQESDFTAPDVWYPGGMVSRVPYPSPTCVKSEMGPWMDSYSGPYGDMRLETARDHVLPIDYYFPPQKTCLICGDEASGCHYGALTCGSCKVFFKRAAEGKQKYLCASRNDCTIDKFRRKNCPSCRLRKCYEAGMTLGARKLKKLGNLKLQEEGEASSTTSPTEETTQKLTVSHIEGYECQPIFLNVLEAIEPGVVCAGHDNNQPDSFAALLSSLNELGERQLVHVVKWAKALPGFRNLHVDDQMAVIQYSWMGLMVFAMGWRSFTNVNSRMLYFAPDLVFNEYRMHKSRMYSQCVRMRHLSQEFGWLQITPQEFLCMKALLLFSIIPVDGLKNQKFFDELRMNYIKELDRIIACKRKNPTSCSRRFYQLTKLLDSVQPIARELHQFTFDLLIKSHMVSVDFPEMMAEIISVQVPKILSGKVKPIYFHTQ
Assay: OT_AR_ARELUC_AG_1440: Odyssey Thera (OT) 24-hour CHO-K1 Luciferase Assay for Agonist Androgen Response Element (ARE) (AID 2283379)
Results filed as inconclusive are left out. The source made the active and inactive calls. Rule for the calls: active = hit-call score of the fitted dose curve at least 0.9, where 1 is the maximum; inconclusive = response in the unintended direction; inactive = score below 0.9.
Mark one answer only. Choices: active, inactive

OC[C@H]1O[C@@H](O[C@H]2[C@H](O)[C@@H](O)[C@H](O)O[C@@H]2CO)[C@H](O)[C@@H](O)[C@H]1O = inactive
CCCCCCCCCCOC(=O)c1ccccc1C(=O)OCCCCCCCC = inactive

Prompt line: Would you mind telling me which call this test gave CC(CCO)CC(C)(C)C (stereo not drawn) ?
Response line: inactive

Prompt line: Would you mind telling me which call this test gave `CC(C)(C)c1cccc(O)c1` ?
Response line: inactive

Prompt line: Would you mind telling me which call this test gave `COc1cc(OC)c2ccc(=O)oc2c1` ?
Response line: inactive

Prompt line: Would you mind telling me which call this test gave `FC(F)(F)c1ccc(Cl)c(Cl)c1` ?
Response line: inactive

Prompt line: Would you mind telling me which call this test gave `COC(=O)c1cccc(C(=O)OC)c1` ?
Response line: active

Prompt line: Would you mind telling me which call this test gave CC1COC(=O)O1 (stereo not drawn) ?
Response line: inactive

---

Test: Tanguay_ZF_120hpf_AXIS_legacy: (Legacy) Oregon State University Tanguay Lab 120 Hour Post-fertilization zebrafish Assay for Body Axis Malformation (AID 2283635)
Inconclusive results are not listed. The source made the active and inactive calls. The calls were made as follows: active = hit-call score of the fitted dose curve at least 0.9, where 1 is the maximum; inconclusive = response in the unintended direction; inactive = score below 0.9.
Mark one answer only. Choices: active, inactive

These solved cases illustrate the format of a correct answer.
CCCCOCCOCCO = inactive
C=C(C)C(N)=O = inactive
COC(=O)c1ccc(C(=O)OC)cc1 = active

Prompt line: Would you mind telling me which call this test gave `O=C(c1ccc(OCCN2CCCCC2)cc1)c1c(-c2ccc(O)cc2)sc2cc(O)ccc12` ?
Response line: inactive

---

Read-out: Interleukin-1 alpha (IL1a), IL1A (gene 3552)
Test: BSK_BE3C_IL1a: BioMAP Diversity Plus: BE3C Assay for Interleukin-1 alpha (IL1a) Biomarker Activity (AID 2283016)
Conditions: primary human bronchial epithelial cells; actives raise or lower the signal
Calls of active or inactive are those of the source. Rule for the calls: active = hit-call score of the fitted dose curve at least 0.9, where 1 is the maximum; inactive = score below 0.9.
Mark one answer only. Choices: active, inactive

These solved cases illustrate the format of a correct answer.
CCCCCCCCCCCCS = inactive
C=C(C)C(=O)OCCC(F)(F)C(F)(F)C(F)(F)C(F)(F)C(F)(F)C(F)(F)C(F)(F)C(F)(F)F = inactive
CCn1cc(C(=O)O)c(=O)c2ccc(C)nc21 = inactive
CC=CC(=O)C1=C(C)C=CCC1(C)C = inactive
CCC(=O)OCC=Cc1ccccc1 = inactive
CC1(C)[C@H](C=C(Cl)Cl)[C@H]1C(=O)OCc1cccc(Oc2ccccc2)c1 = inactive
CC1=CC(C)C(C=O)C(C)C1 (stereo not given) (tested in a mixture with another compound) = inactive
C=C1CC/C=C(\C)CC[C@@H]2[C@@H]1CC2(C)C = inactive
C[C@]12CC[C@@H]3c4ccc(O)cc4CC[C@H]3[C@@H]1CC[C@@H]2O = inactive
CC(=O)CCC=C(C)CCC=C(C)C = inactive

Prompt line: Would you mind telling me which call this test gave `O=S1(=O)CC(Cl)(Cl)C(Cl)(Cl)C1` ?
Response line: active

Prompt line: Would you mind telling me which call this test gave `CC(C)(C)c1cccc(O)c1` ?
Response line: inactive

Prompt line: Would you mind telling me which call this test gave `OCCN1CCOCC1` ?
Response line: inactive

Prompt line: Would you mind telling me which call this test gave `CCCCN(CCO)CCO` ?
Response line: inactive

Prompt line: Would you mind telling me which call this test gave `c1ccc2c(c1)-c1ccc3ccc4cccc5cc-2c1c3c45` ?
Response line: inactive

---

Read-out: Plasminogen activator inhibitor-1 (PAI1), SERPINE1 (gene 5054)
Test: BSK_MyoF_PAI1: BioMAP Diversity Plus: MyoF Assay for Plasminogen activator inhibitor-1 (PAI1) Biomarker Activity (AID 2284256)
Conditions: primary human lung fibroblasts
The source made the active and inactive calls. Rule for the calls: active = hit-call score of the fitted dose curve at least 0.9, where 1 is the maximum; inactive = score below 0.9.
Mark one answer only. Choices: 1 (active), 0 (inactive)

These solved cases illustrate the format of a correct answer.
COc1ccccc1NC(=O)CC(C)=O = 0
C=CC(=O)OCC(CO)(COC(=O)C=C)COC(=O)C=C = 1
CCCCCCCC1CCCC1=O (centres undefined) = 0
CC1=CC(C)C(C=O)C(C)C1 (centres undefined) (tested in a mixture with another compound) = 0
C=C(C)C(=O)OCCC(F)(F)C(F)(F)C(F)(F)C(F)(F)C(F)(F)C(F)(F)C(F)(F)C(F)(F)F = 0

Prompt line: Would you mind telling me which call this test gave `O=C(O)C(F)(F)C(F)(F)C(F)(F)C(F)(F)C(F)(F)C(F)(F)C(F)(F)C(F)F` ?
Response line: 0

Prompt line: Would you mind telling me which call this test gave `O=S1(=O)CC(Cl)(Cl)C(Cl)(Cl)C1` ?
Response line: 1

Prompt line: Would you mind telling me which call this test gave `OCCN1CCOCC1` ?
Response line: 0

Prompt line: Would you mind telling me which call this test gave `CCOC(=O)CCCCCCCCC(=O)OCC` ?
Response line: 0

---

Test: ATG_MRE_CIS: Attagene CIS-FACTORIAL HepG2 Assay for human Metal Responsive Element (MRE) (AID 2282954)
Settings: HepG2 MRE cis-reporter transcription, Attagene multiplex; actives raise or lower the signal
Calls of active or inactive are those of the source. Rule for the calls: active = hit-call score of the fitted dose curve at least 0.9, where 1 is the maximum; inactive = score below 0.9.
Mark one answer only. Choices: TRUE = active, FALSE = inactive

C=C(C)C(=O)OCCN(C)C = FALSE
CC(=O)OC(C)(C)C1CC=C(C)CC1 (centres undefined) = FALSE
c1ccc(Cc2ccccc2)cc1 = FALSE

Prompt line: Would you mind telling me which call this test gave `CN(C)C(=O)Nc1ccccc1` ?
Response line: FALSE

Prompt line: Would you mind telling me which call this test gave CC(CO)c1ccccc1 (centres undefined) ?
Response line: FALSE

Prompt line: Would you mind telling me which call this test gave `CCCCCCCCCCOC(=O)c1ccccc1C(=O)OCCCCCCCC` ?
Response line: FALSE

Prompt line: Would you mind telling me which call this test gave `CCCO` ?
Response line: FALSE

Prompt line: Would you mind telling me which call this test gave `Cc1ccc(C(C)(C)O)cc1` ?
Response line: FALSE

Prompt line: Would you mind telling me which call this test gave `C=CC(=O)OCC(CO)(COC(=O)C=C)COC(=O)C=C` ?
Response line: TRUE

Prompt line: Would you mind telling me which call this test gave CC(C)(C)C1CCC(O)CC1 (centres undefined) ?
Response line: FALSE

Prompt line: Would you mind telling me which call this test gave `CCCCCCOC(C)=O` ?
Response line: FALSE

Prompt line: Would you mind telling me which call this test gave C=CC(C)(CCC=C(C)C)OC(=O)CC (centres undefined) ?
Response line: FALSE

Prompt line: Would you mind telling me which call this test gave `COc1ccc(N)c(C)c1` ?
Response line: FALSE

Prompt line: Would you mind telling me which call this test gave `O=C1OC2(c3ccc(O)cc3Oc3cc(O)ccc32)c2ccccc21` ?
Response line: FALSE

Prompt line: Would you mind telling me which call this test gave `O=S1(=O)CC(Cl)(Cl)C(Cl)(Cl)C1` ?
Response line: TRUE

Prompt line: Would you mind telling me which call this test gave CC(O)COCC(C)O (centres undefined) ?
Response line: FALSE

Prompt line: Would you mind telling me which call this test gave `NCCN1CCNCC1` ?
Response line: FALSE

Prompt line: Would you mind telling me which call this test gave CCCCC1CCCCC(=O)O1 (centres undefined) ?
Response line: FALSE

Prompt line: Would you mind telling me which call this test gave `C[N+](C)(C)CCO` ?
Response line: FALSE

Prompt line: Would you mind telling me which call this test gave `NC(N)=NC(N)=NCCc1ccccc1` ?
Response line: FALSE

---

Read-out: Apolipoprotein A-V (APOA5) gene, APOA5 (gene 116519)
Test: LTEA_HepaRG_APOA5: Life Technologies and Expression Analysis (LTEA) Assay for Apolipoprotein A-V (APOA5) gene using HepaRG (AID 2283474)
Conditions: mRNA level, 48 h; actives raise or lower the signal
Activity calls are given as the source filed them. The calls were made as follows: active = hit-call score of the fitted dose curve at least 0.9, where 1 is the maximum; inactive = score below 0.9.
Mark one answer only. Choices: yes (1) = active, no (0) = inactive

Prompt line: Would you mind telling me which call this test gave `CCCCOCCOCCO` ?
Response line: no (0)

---

Assay: CCTE_Shafer_MEA_dev_firing_rate_mean: CCTE's Neural Network Formation Assay for Mean Firing Rate, Shafer Lab (AID 2284031);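 note: AUC of well mean spike rate recorded on DIV 5 7 9 and 12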
Active and inactive are the calls of the source. Rule for the calls: active = hit-call score of the fitted dose curve at least 0.9, where 1 is the maximum; inactive = score below 0.9.
Mark one answer only. Choices: TRUE for active, FALSE for inactive

N#CCCNCCC#N = FALSE
CCCCC(CC)COC(=O)COc1ccc(Cl)cc1C (stereo unspecified) = FALSE

Prompt line: Would you mind telling me which call this test gave `c1ccc2scnc2c1` ?
Response line: FALSE

Prompt line: Would you mind telling me which call this test gave `N[C@@H](CCC(=O)O)C(=O)O` ?
Response line: FALSE

Prompt line: Would you mind telling me which call this test gave `CC/C(=C(\c1ccccc1)c1ccc(OCCN(C)C)cc1)c1ccccc1` ?
Response line: TRUE

Prompt line: Would you mind telling me which call this test gave CC(C)Cc1ccc(C(C)C(=O)O)cc1 (stereo unspecified) ?
Response line: FALSE
